Test system: 996289-038-R-J1-PDC spheroid viability
Experiment: Anticancer human tumor 996289-038-R-J1-PDC patient-derived colon adenocarcinoma cell line growth inhibition [PI3K]
Settings: second compound 1 µM; first compound 0.001 µM; active compounds read low; spheroids with HUVEC and MSC
Source text: Combinatorial screen of targeted agents with the PI3K inhibitors inavolisib, alpelisib, duvelisib, and copanlisib in multi-cell type tumor spheroids A high-throughput screen of multi-cell type tumor spheroids was designed to identify active combinations of targeted small molecules and PI3K pathway inhibitors. […] Compounds. […] If the clinical Cmax for an agent had not been determined, the highest concentration tested was 10 microM. […]
Reported viability, T/C by item:
TEST_READOUT: viability, T/C (%)

INSERT INTO results (compound, unit_of_measure, observed_measurement) VALUES
  ('CC(=O)c1c(C)c2cnc(Nc3ccc(N4CCNCC4)cn3)nc2n(C2CCCC2)c1=O + Cc1nc(NC(=O)N2CCCC2C(N)=O)sc1-c1ccnc(C(C)(C)C(F)(F)F)c1', '%', 74.5),
  ('CC(=O)c1c(C)c2cnc(Nc3ccc(N4CCNCC4)cn3)nc2n(C2CCCC2)c1=O + CC(Nc1ncnc2nc[nH]c12)c1cc2cccc(Cl)c2c(=O)n1-c1ccccc1', '%', 102),
  ('CC(=O)c1c(C)c2cnc(Nc3ccc(N4CCNCC4)cn3)nc2n(C2CCCC2)c1=O + COc1c(OCCCN2CCOCC2)ccc2c3n(c(=NC(=O)c4cnc(N)nc4)nc12)CCN3', '%', 22);

* * *

test system: 996289-038-R-J1-PDC spheroid viability; assay: Anticancer human tumor 996289-038-R-J1-PDC cell line growth inhibition [PI3K]; details: second compound 0.1 µM; first compound 10 µM; active compounds read low; spheroids with HUVEC and MSC;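 note: luminescence used as a proxy for viable cell amount; spheroids exposed to compounds for seven days before viability read; percent viability relative to DMSO vehicle control as 100%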
Response field label takes criterion met when viability, T/C is strictly below 30% and criterion not met in all other cases.

INSERT INTO results (molecule, category) VALUES
  ('C#Cc1c(F)ccc2cc(O)cc(-c3ncc4c(N5CC6CCC(C5)N6)nc(OCC56CCCN5CC(F)C6)nc4c3F)c12 (stereo not given) + Cc1nc(NC(=O)N2CCCC2C(N)=O)sc1-c1ccnc(C(C)(C)C(F)(F)F)c1', 'criterion not met'),
  ('CC(Cn1ccc(-c2ccc(C#N)c(Cl)c2)n1)NC(=O)c1cc(C(C)O)[nH]n1 (stereo not given) + CC(Nc1ccc2c(c1)OCCn1cc(N3C(=O)OCC3C(F)F)nc1-2)C(N)=O', 'criterion not met'),
  ('CCCS(=O)(=O)Nc1ccc(F)c(C(=O)c2c[nH]c3ncc(-c4ccc(Cl)cc4)cc23)c1F + CC(Nc1ccc2c(c1)OCCn1cc(N3C(=O)OCC3C(F)F)nc1-2)C(N)=O', 'criterion met'),
  ('C[C@@H](NC(=O)c1ncnc(N)c1Cl)c1ncc(C(=O)Nc2cc(C(F)(F)F)c(Cl)cn2)s1 + Cc1nc(NC(=O)N2CCCC2C(N)=O)sc1-c1ccnc(C(C)(C)C(F)(F)F)c1', 'criterion not met'),
  ('Cn1ncc(Cl)c1-c1cc(C(=O)NC(CN)Cc2cccc(F)c2)sc1Cl (stereo not given) + CC(Nc1ccc2c(c1)OCCn1cc(N3C(=O)OCC3C(F)F)nc1-2)C(N)=O', 'criterion not met');

* * *

Reported viability, T/C by item:
System: 996289-038-R-J1-PDC spheroid viability
Experiment: Anticancer human tumor 996289-038-R-J1-PDC cell line growth inhibition [PI3K];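 note: luminescence used as a proxy for viable cell amount; spheroids exposed to compounds for seven days before viability read; percent viability relative to DMSO vehicle control as 100%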
Settings: second compound 0.1 µM; first compound 0.01 µM; active compounds read low; spheroids with HUVEC and MSC
From the text: Combinatorial screen of targeted agents with the PI3K inhibitors inavolisib, alpelisib, duvelisib, and copanlisib in multi-cell type tumor spheroids A high-throughput screen of multi-cell type tumor spheroids was designed to identify active combinations of targeted small molecules and PI3K pathway inhibitors. […] Compounds. […] If the clinical Cmax for an agent had not been determined, the highest concentration tested was 10 microM. […]
TEST_READOUT: viability, T/C

INSERT INTO results (molecule, observed_measurement) VALUES
  ('CCN1CCN(Cc2ccc(Nc3ncc(F)c(-c4cc(F)c5nc(C)n(C(C)C)c5c4)n3)nc2)CC1 + CC(Nc1ccc2c(c1)OCCn1cc(N3C(=O)OCC3C(F)F)nc1-2)C(N)=O', '75.1%'),
  ('CC(=O)c1c(C)c2cnc(Nc3ccc(N4CCNCC4)cn3)nc2n(C2CCCC2)c1=O + COc1c(OCCCN2CCOCC2)ccc2c3n(c(=NC(=O)c4cnc(N)nc4)nc12)CCN3', '55%'),
  ('CC(=O)c1c(C)c2cnc(Nc3ccc(N4CCNCC4)cn3)nc2n(C2CCCC2)c1=O + CC(Nc1ccc2c(c1)OCCn1cc(N3C(=O)OCC3C(F)F)nc1-2)C(N)=O', '92.5%'),
  ('CC(=O)c1c(C)c2cnc(Nc3ccc(N4CCNCC4)cn3)nc2n(C2CCCC2)c1=O + CC(Nc1ncnc2nc[nH]c12)c1cc2cccc(Cl)c2c(=O)n1-c1ccccc1', '102%'),
  ('CCN1CCN(Cc2ccc(Nc3ncc(F)c(-c4cc(F)c5nc(C)n(C(C)C)c5c4)n3)nc2)CC1 + CC(Nc1ncnc2nc[nH]c12)c1cc2cccc(Cl)c2c(=O)n1-c1ccccc1', '96.4%'),
  ('CC(C)n1nc(-c2ccc3oc(N)nc3c2)c2c(N)ncnc21 + CC(Nc1ncnc2nc[nH]c12)c1cc2cccc(Cl)c2c(=O)n1-c1ccccc1', '95.8%');
